Assign Tmax to each entry below.
- procedure-text: Pharmacokinetic evaluation by intravenous injection or oral gavage in mice
- Assay type: in vivo
- reported-conditions: mouse, plasma, po; ICR mice, intragastric administration, 10 mg/kg
Numbers only, in min.

// each molecule listed below needs its Tmax
1. [2H]C([2H])([2H])C([2H])([2H])ONC(=O)c1nnc(NC(=O)C2CC2)cc1Nc1cccc(-c2ncn(C3CC3)n2)c1OC
2. [2H]C([2H])([2H])Oc1c(Nc2cc(NC(=O)C3CC3)nnc2C(=O)NOCC)cccc1-c1ncn(C2CC2)n1
3. CCONC(=O)c1nnc(NC(=O)C2CC2)cc1Nc1cccc(-c2ncn(C3CC3)n2)c1OC

[A]
[40.2, 40.2, 49.8]

###

- procedure-text: Pharmacokinetic evaluation by intravenous injection or oral gavage in mice
- Type: in vivo
- reported-conditions: mouse, plasma, po; ICR mice, intragastric administration, 10 mg/kg
- Procedure: The inventors evaluated the pharmacokinetic properties of the compound of the present invention in mice. The compound of the present invention was administered to the test animals in the form of 5% DMA+5% Solutol+90% saline or 5% ethanol+5% TPGS+90% PEG300 solvent. The animals were fasted for 12 hours before administration and had free access to water. For the intravenous administration group, the dose was 1 mg/kg. The drug was administered by intragastric administration at a dose of 10 mg/kg. […]
measured-parameter: AUC(0-t) (ng·h/mL)
Give bare numbers, in ng·h/mL.

| smiles-record | AUC(0-t) (ng·h/mL) |
| --- | --- |
| CCONC(=O)c1nnc(NC(=O)C2CC2)cc1Nc1cccc(-c2ncn(C3CC3)n2)c1OC | 7850 |
| [2H]C([2H])([2H])C([2H])([2H])ONC(=O)c1nnc(NC(=O)C2CC2)cc1Nc1cccc(-c2ncn(C3CC3)n2)c1OC | 17500 |

Switching to the query record.
[Q] AUC(0-t) lookup needed for [2H]C([2H])([2H])Oc1c(Nc2cc(NC(=O)C3CC3)nnc2C(=O)NOCC)cccc1-c1ncn(C2CC2)n1 , thanks.
[A] 20100

###

- procedure-text: Pharmacokinetic evaluation by intravenous injection or oral gavage in mice
- Type: in vivo
- reported-conditions: mouse, plasma; ICR mice, intravenous administration, 1 mg/kg
measured-parameter: Tmax
Reply with the number and its unit after it.

| smiles-record | Tmax |
| --- | --- |
| CCONC(=O)c1nnc(NC(=O)C2CC2)cc1Nc1cccc(-c2ncn(C3CC3)n2)c1OC | 4.8 min |
| [2H]C([2H])([2H])C([2H])([2H])ONC(=O)c1nnc(NC(=O)C2CC2)cc1Nc1cccc(-c2ncn(C3CC3)n2)c1OC | 4.8 min |

Switching to the query record.
[Q] Tmax lookup needed for [2H]C([2H])([2H])Oc1c(Nc2cc(NC(=O)C3CC3)nnc2C(=O)NOCC)cccc1-c1ncn(C2CC2)n1 , thanks.
[A] 4.8 min

###

- procedure-text: Pharmacokinetic evaluation by intravenous injection or oral gavage in mice
- Assay type: in vivo
- reported-conditions: mouse, plasma, po; ICR mice, intragastric administration, 10 mg/kg
Assign Cmax to each entry below.
Reply with the number and its unit after it.

Look over these answered cases.
| smiles-record | Cmax |
| --- | --- |
| [2H]C([2H])([2H])C([2H])([2H])ONC(=O)c1nnc(NC(=O)C2CC2)cc1Nc1cccc(-c2ncn(C3CC3)n2)c1OC | 5640 ng/mL |
| [2H]C([2H])([2H])Oc1c(Nc2cc(NC(=O)C3CC3)nnc2C(=O)NOCC)cccc1-c1ncn(C2CC2)n1 | 9220 ng/mL |

Switching to the query record.
[Q] Cmax lookup needed for CCONC(=O)c1nnc(NC(=O)C2CC2)cc1Nc1cccc(-c2ncn(C3CC3)n2)c1OC , thanks.
[A] 3460 ng/mL

###

- experimental-target: TYK2 JH2 pseudokinase (Homo sapiens)
- Construct: 5 μL of 3×TYK2 JH2 kinase (Bioduro)
- procedure-text: TYK2 JH2 in vitro enzyme binding assay (TR-FRET)
- reported-conditions: 60 min at room temperature
Assign IC50 to each entry below.
Numbers only, in pM.

Look over these answered cases.
| compound | value-units | IC50 |
| --- | --- | --- |
| CCONC(=O)c1nnc(NC(=O)C2CC2)cc1Nc1cc(F)cc(-c2ncn(C)n2)c1OC [Compound 4] | pM | 200 |
| CONC(=O)c1nnc(NC(=O)C2CC2)cc1Nc1cccc(-c2ncn(C)n2)c1OC [Compound 1] | pM | 170 |
| CCONC(=O)c1nnc(NC(=O)C2CC2)cc1Nc1cc(F)cc(-c2ncn(C3CC3)n2)c1OC [Compound 8] | pM | 330 |
| CONC(=O)c1nnc(Nc2cccc(C#N)n2)cc1Nc1cccc(-c2ncn(C)n2)c1OC [Compound 2] | pM | 160 |
| [2H]C([2H])([2H])ONC(=O)c1nnc(NC(=O)C2CC2)cc1Nc1cccc(-c2ncn(C3CC3)n2)c1OC [Compound 16] | pM | 290 |
| [2H]C([2H])([2H])C([2H])([2H])ONC(=O)c1nnc(NC(=O)C2CC2)cc1Nc1cccc(-c2ncn(C)n2)c1OC [Compound 15] | pM | 140 |

[Q] IC50 lookup needed for [2H]C([2H])([2H])n1cnc(-c2cccc(Nc3cc(NC(=O)C4CC4)nnc3C(=O)NOCC)c2OC)n1 [Compound 5] , thanks.
[A] 260

###

- experimental-target: TYK2 JH2 pseudokinase (Homo sapiens, UniProt P29597)
- Construct: 5 μL of 3×TYK2 JH2 kinase (Bioduro)
- Sequence (P29597 589-875 limits assumed): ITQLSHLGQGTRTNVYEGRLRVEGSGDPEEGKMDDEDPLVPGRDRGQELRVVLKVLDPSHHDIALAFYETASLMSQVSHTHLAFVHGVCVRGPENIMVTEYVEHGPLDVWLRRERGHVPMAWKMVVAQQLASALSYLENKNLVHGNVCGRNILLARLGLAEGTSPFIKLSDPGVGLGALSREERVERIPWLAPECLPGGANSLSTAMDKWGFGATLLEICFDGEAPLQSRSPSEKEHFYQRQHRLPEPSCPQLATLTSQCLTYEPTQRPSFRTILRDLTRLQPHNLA
- procedure-text: TYK2 JH2 in vitro enzyme binding assay (TR-FRET)
- reported-conditions: 60 min at room temperature
- Method: Purpose: The purpose of this test example was to use a fluorescence resonance energy transfer (TR-FRET) method to test the binding effect of the compound on a TYK2 JH2 pseudokinase, and then evaluate the affinity of the compound for TYK2 JH2. DMSO-dissolved compounds were used to prepare 10 mM stock solutions, then 200× compounds having different gradient concentrations were prepared in a compound dilution plate, and transferred to an Echo plate. […]
Assign pIC50 to each entry below.
One number for each entry, as −log10 of the molar value.

Look over these answered cases.
| molecule | reported-measurement |
| --- | --- |
| [2H]C([2H])([2H])ONC(=O)c1nnc(NC(=O)C2CC2)cc1Nc1cccc(-c2ncn(C)n2)c1OC [Compound 14] | 9.57 |
| [2H]C([2H])([2H])n1cnc(-c2cc(F)cc(Nc3cc(NC(=O)C4CC4)nnc3C(=O)NOCC)c2OC)n1 [Compound 6] | 9.52 |
| CCONC(=O)c1nnc(NC(=O)C2CC2)cc1Nc1cccc(-c2ncn(C3CC3)n2)c1OC [Compound 7] | 9.77 |
| [2H]C([2H])([2H])C([2H])([2H])ONC(=O)c1nnc(NC(=O)C2CC2)cc1Nc1cccc(-c2ncn(C3CC3)n2)c1OC [Compound 17] | 9.72 |
| CCONC(=O)c1nnc(NC(=O)C2CC2)cc1Nc1cccc(-c2ncn(C)n2)c1OC [Compound 3] | 9.89 |

Switching to the query record.
[Q] Query for TYK2 JH2 pseudokinase (Homo sapiens, UniProt P29597): what pIC50 does the record show for [2H]C([2H])([2H])Oc1c(Nc2cc(NC(=O)C3CC3)nnc2C(=O)NOCC)cccc1-c1ncn(C2CC2)n1 [Compound 9] ?
[A] 9.66
